Target Or System: Angiotensin II receptor (Rattus norvegicus) (UniProt P29089+P25095+P35351)
Method: In vivo blood pressure increase produced by a 1 ug bolus i.v.
Format: functional, organism-based
Where a SMILES comes first, the peptide text is derived from it. [ ]: non-standard residue; d: D form. Phe(4-NO2) = N[C@@H](Cc1ccc([N+](=O)[O-])cc1)C(=O)O; Phe(4-F) = N[C@@H](Cc1ccc(F)cc1)C(=O)O; Sar = CNCC(=O)O

Compound: CC[C@H](C)[C@H](NC(=O)[C@@H]1CCCN1C(=O)[C@H](Cc1c[nH]cn1)NC(=O)[C@@H](NC(=O)[C@H](Cc1ccc(F)cc1)NC(=O)[C@@H](NC(=O)[C@H](CCCN=C(N)N)NC(=O)CNC)C(C)C)[C@@H](C)CC)C(=O)O (H-[Sar]RV[Phe(4-F)]IHPI-OH)
Blood pressure / mmHg: 0
--
Compound: CC[C@H](C)[C@H](NC(=O)[C@H](Cc1ccc(OC)cc1)NC(=O)[C@@H](NC(=O)[C@H](CCCN=C(N)N)NC(=O)CNC)C(C)C)C(=O)N[C@@H](Cc1c[nH]cn1)C(=O)N1CCC[C@H]1C(=O)N[C@@H](Cc1ccccc1)C(=O)O
Blood pressure / mmHg: 20
--
Compound: CC[C@H](C)[C@H](NC(=O)[C@H](Cc1ccc(F)cc1)NC(=O)[C@@H](NC(=O)[C@H](CCCN=C(N)N)NC(=O)CNC)C(C)C)C(=O)N[C@@H](Cc1c[nH]cn1)C(=O)N1CCC[C@H]1C(=O)N[C@H](Cc1ccccc1)C(=O)O
Blood pressure / mmHg: 10
--
Compound: CCOc1ccc(C[C@H](NC(=O)[C@@H](NC(=O)[C@H](CCCN=C(N)N)NC(=O)CNC)C(C)C)C(=O)N[C@H](C(=O)N[C@@H](Cc2c[nH]cn2)C(=O)N2CCC[C@H]2C(=O)N[C@H](C(=O)O)[C@@H](C)CC)[C@@H](C)CC)cc1
Blood pressure / mmHg: 5
--
Compound: CC[C@H](C)[C@H](NC(=O)[C@@H]1CCCN1C(=O)[C@H](Cc1c[nH]cn1)NC(=O)[C@@H](NC(=O)[C@H](Cc1ccc([N+](=O)[O-])cc1)NC(=O)[C@@H](NC(=O)[C@H](CCCN=C(N)N)NC(=O)CNC)C(C)C)[C@@H](C)CC)C(=O)O (H-[Sar]RV[Phe(4-NO2)]IHPI-OH)
Blood pressure / mmHg: 5
--
Compound: CC[C@H](C)[C@H](NC(=O)[C@H](Cc1ccc(F)cc1)NC(=O)[C@@H](NC(=O)[C@H](CCCN=C(N)N)NC(=O)CNC)C(C)C)C(=O)N[C@@H](Cc1c[nH]cn1)C(=O)N1CCC[C@H]1C(=O)N[C@@H](Cc1ccccc1)C(=O)O
Blood pressure / mmHg: 22
--
Compound: CC[C@H](C)[C@H](NC(=O)[C@H](Cc1ccc(O)cc1)NC(=O)[C@@H](NC(=O)[C@H](CCCN=C(N)N)NC(=O)CNC)C(C)C)C(=O)N[C@@H](Cc1c[nH]cn1)C(=O)N1CCC[C@H]1C(=O)N[C@@H](Cc1ccccc1)C(=O)O
Blood pressure / mmHg: 50
--
Compound: CC[C@H](C)[C@H](NC(=O)[C@H](Cc1ccccc1)NC(=O)[C@@H](NC(=O)[C@H](CCCN=C(N)N)NC(=O)CNC)C(C)C)C(=O)N[C@@H](Cc1c[nH]cn1)C(=O)N1CCC[C@H]1C(=O)N[C@@H](Cc1ccc(O)cc1)C(=O)O
Blood pressure / mmHg: 5.5

Cited source for all entries: ChEMBL document CHEMBL1124503
